- Method Summary: In vitro metabolic stability in hepatic microsomes, rodent summary
- Format: in vitro ADME, mouse and rat
- Measurement Context: both (mouse), male (rat), pooled liver microsomes, rodents (mouse and rat) liver microsomes
Recorded Metric: microsomal CLint at 1 μM

Supply reported microsomal CLint at 1 μM belonging to this compound: CC(C)[C@@H](C)[C@@]1(C)CC[C@]2(C)[C@H]3CC[C@@H]4[C@@]5(COC[C@@]4(C)[C@@H](OC[C@](C)(N)C(C)(C)C)[C@H](n4ncnc4-c4ccncc4)C5)C3=CC[C@@]2(C)[C@@H]1C(=O)O [SCY-078]
≤ 11 µL/min/mg

----------
- Method Summary: in vivo
- Measurement Context: female, CD-1, mouse, kidney/plasma, po, 12 mg/kg
Recorded Metric: Kp

Report measured Kp; entry is CC(C)[C@@H](C)[C@@]1(C)CC[C@]2(C)[C@H]3CC[C@@H]4[C@@]5(COC[C@@]4(C)[C@@H](OC[C@](C)(N)C(C)(C)C)[C@H](n4ncnc4-c4ccncc4)C5)C3=CC[C@@]2(C)[C@@H]1C(=O)O
23.1

----------
- Method Summary: in vivo
- Parameters: species or system female CD-1 mice
- Measurement Context: female, CD-1, mouse, po, 12 mg/kg
Recorded Metric: concentration at 12 h (ng/mL)
# unit: ng/mL | format: bare number

For the compound CC(C)[C@@H](C)[C@@]1(C)CC[C@]2(C)[C@H]3CC[C@@H]4[C@@]5(COC[C@@]4(C)[C@@H](OC[C@](C)(N)C(C)(C)C)[C@H](n4ncnc4-c4ccncc4)C5)C3=CC[C@@]2(C)[C@@H]1C(=O)O , give its reported concentration at 12 h.
850

----------
- Method Summary: in vivo
- Measurement Context: female, CD-1, mouse, kidney, po, 6.25 mg/kg
Recorded Metric: half-life (h)
Give the number; h is assumed, so skip it.

Consider the molecule CC(C)[C@@H](C)[C@@]1(C)CC[C@]2(C)[C@H]3CC[C@@H]4[C@@]5(COC[C@@]4(C)[C@@H](OC[C@](C)(N)C(C)(C)C)[C@H](n4ncnc4-c4ccncc4)C5)C3=CC[C@@]2(C)[C@@H]1C(=O)O . State its measured half-life.
9.2

----------
- Method Summary: in vivo
- Design: species or system beagle dogs
- Measurement Context: both sexes, beagle, dog, iv, 5 mg/kg
Recorded Metric: clearance (mL/min/kg)
The reply should contain only the number, in mL/min/kg.

Supply recorded clearance for CC(C)[C@@H](C)[C@@]1(C)CC[C@]2(C)[C@H]3CC[C@@H]4[C@@]5(COC[C@@]4(C)[C@@H](OC[C@](C)(N)C(C)(C)C)[C@H](n4ncnc4-c4ccncc4)C5)C3=CC[C@@]2(C)[C@@H]1C(=O)O [SCY-078] here.
7.5

----------
- Method Summary: Plasma protein binding by equilibrium dialysis
- Format: in vitro ADME
- Measurement Context: pH 7.4; human plasma, 1 μM
Recorded Metric: fraction unbound at 24 h, 1 μM
Kindly provide the number alone.

Name the recorded fraction unbound at 24 h, 1 μM of the compound listed here: CC(C)[C@@H](C)[C@@]1(C)CC[C@]2(C)[C@H]3CC[C@@H]4[C@@]5(COC[C@@]4(C)[C@@H](OC[C@](C)(N)C(C)(C)C)[C@H](n4ncnc4-c4ccncc4)C5)C3=CC[C@@]2(C)[C@@H]1C(=O)O
0.003

----------
- Method Summary: in vivo
- Measurement Context: female, CD-1, mouse, kidney, po, 6.25 mg/kg
Recorded Metric: AUC(0-inf)
Number first, unit second.

Respond only with AUC(0-inf) recorded for CC(C)[C@@H](C)[C@@]1(C)CC[C@]2(C)[C@H]3CC[C@@H]4[C@@]5(COC[C@@]4(C)[C@@H](OC[C@](C)(N)C(C)(C)C)[C@H](n4ncnc4-c4ccncc4)C5)C3=CC[C@@]2(C)[C@@H]1C(=O)O
198 µg·h/mL

----------
- Method Summary: Plasma protein binding by equilibrium dialysis
- Type: in vitro ADME
- Measurement Context: pH 7.4; human plasma, 10 μM
- Method: Protein binding of [^3H]SCY-078 in mouse, rat, dog, and human plasma was determined by means of equilibrium dialysis and liquid scintillation counting. Tritium-labeled SCY-078 in ethanol was added to unlabeled SCY-078 in methanol to prepare stock solutions at 10, 100, and 1,000 μM SCY-078 with constant activity. Protein binding was determined against isotonic phosphate-buffered saline (pH 7.4) at 37°C for 24 h. […]
Recorded Metric: fraction unbound at 24 h, 10 μM
# output: bare number, no unit

For the compound CC(C)[C@@H](C)[C@@]1(C)CC[C@]2(C)[C@H]3CC[C@@H]4[C@@]5(COC[C@@]4(C)[C@@H](OC[C@](C)(N)C(C)(C)C)[C@H](n4ncnc4-c4ccncc4)C5)C3=CC[C@@]2(C)[C@@H]1C(=O)O , report fraction unbound at 24 h, 10 μM.
0.004

----------
- Method Summary: In vitro metabolic stability in hepatic microsomes, rodent summary
- Assay type: in vitro ADME, mouse and rat
- Measurement Context: both (mouse), male (rat), pooled liver microsomes, rodent liver microsomes
Recorded Metric: half-life at 1 μM

Give the reported half-life at 1 μM for this molecule. CC(C)[C@@H](C)[C@@]1(C)CC[C@]2(C)[C@H]3CC[C@@H]4[C@@]5(COC[C@@]4(C)[C@@H](OC[C@](C)(N)C(C)(C)C)[C@H](n4ncnc4-c4ccncc4)C5)C3=CC[C@@]2(C)[C@@H]1C(=O)O [SCY-078]
≥ 2.08 h

----------
- Method Summary: in vivo
- Measurement Context: female, CD-1, mouse, kidney, po, 6.25 mg/kg
Recorded Metric: AUC(0-t) (µg·h/mL)
Express the result in µg·h/mL but write the number alone.

Return value of AUC(0-t) for input CC(C)[C@@H](C)[C@@]1(C)CC[C@]2(C)[C@H]3CC[C@@H]4[C@@]5(COC[C@@]4(C)[C@@H](OC[C@](C)(N)C(C)(C)C)[C@H](n4ncnc4-c4ccncc4)C5)C3=CC[C@@]2(C)[C@@H]1C(=O)O , no commentary.
118

----------
- Method Summary: Solubility in simulated gastric and intestinal fluids
- Assay type: physicochemical
- Measurement Context: simulated gastric fluid (SGF), simulated gastric fluid, thermodynamic from solid, citrate salt form, SGF
Recorded Metric: solubility at 24 h

Tell me solubility at 24 h reported for CC(C)[C@@H](C)[C@@]1(C)CC[C@]2(C)[C@H]3CC[C@@H]4[C@@]5(COC[C@@]4(C)[C@@H](OC[C@](C)(N)C(C)(C)C)[C@H](n4ncnc4-c4ccncc4)C5)C3=CC[C@@]2(C)[C@@H]1C(=O)O
> 20 mg/mL

----------
- Method Summary: pKa values
- Assay type: physicochemical
- Measurement Context: pyridine
Recorded Metric: pKa
Note: the reply should be a number with no unit written.

Identify measured pKa corresponding to CC(C)[C@@H](C)[C@@]1(C)CC[C@]2(C)[C@H]3CC[C@@H]4[C@@]5(COC[C@@]4(C)[C@@H](OC[C@](C)(N)C(C)(C)C)[C@H](n4ncnc4-c4ccncc4)C5)C3=CC[C@@]2(C)[C@@H]1C(=O)O [SCY-078]
2.4

----------
- Method Summary: in vivo
- Parameters: species or system beagle dogs
- Measurement Context: both sexes, beagle, dog, po, 20 mg/kg
Recorded Metric: AUC(0-t) (ng·h/mL)
Give the value in ng·h/mL but do not write ng·h/mL after it.

Give recorded AUC(0-t). CC(C)[C@@H](C)[C@@]1(C)CC[C@]2(C)[C@H]3CC[C@@H]4[C@@]5(COC[C@@]4(C)[C@@H](OC[C@](C)(N)C(C)(C)C)[C@H](n4ncnc4-c4ccncc4)C5)C3=CC[C@@]2(C)[C@@H]1C(=O)O [SCY-078]
11500

----------
- Method Summary: logD
- Type: physicochemical
- Measurement Context: pH 7.3
Recorded Metric: logD

Give logD for the following molecule: CC(C)[C@@H](C)[C@@]1(C)CC[C@]2(C)[C@H]3CC[C@@H]4[C@@]5(COC[C@@]4(C)[C@@H](OC[C@](C)(N)C(C)(C)C)[C@H](n4ncnc4-c4ccncc4)C5)C3=CC[C@@]2(C)[C@@H]1C(=O)O
~6.4

----------
- Method Summary: in vivo
- Design: species or system beagle dogs
- Measurement Context: both sexes, beagle, dog, po, 20 mg/kg, t1/2
Recorded Metric: half-life

For the compound CC(C)[C@@H](C)[C@@]1(C)CC[C@]2(C)[C@H]3CC[C@@H]4[C@@]5(COC[C@@]4(C)[C@@H](OC[C@](C)(N)C(C)(C)C)[C@H](n4ncnc4-c4ccncc4)C5)C3=CC[C@@]2(C)[C@@H]1C(=O)O [SCY-078] , give its reported half-life.
~15.2 h

----------
- Method Summary: in vivo
- Parameters: species or system Wistar Han rats
- Measurement Context: both sexes, Wistar Han, rat, po, 20 mg/kg
Recorded Metric: AUC(0-t) (µg·h/mL)
Hi! Could you send only the number? It should be in µg·h/mL, unit omitted.

Annotate the molecule CC(C)[C@@H](C)[C@@]1(C)CC[C@]2(C)[C@H]3CC[C@@H]4[C@@]5(COC[C@@]4(C)[C@@H](OC[C@](C)(N)C(C)(C)C)[C@H](n4ncnc4-c4ccncc4)C5)C3=CC[C@@]2(C)[C@@H]1C(=O)O with its measured AUC(0-t).
16.4
